test system: MCF7 breast; assay: NCI tumour cell line growth inhibition, 48 h; in the data active means GI50 below about 0.43 µM; inactive means the rest
Field 'call' accepts active, inactive

## Task What was the test verdict on `COc1ccc(-c2cc(-c3ccc(Nc4nc(Nc5ccc(Cl)cc5)nc(Nc5ccc(Cl)cc5)n4)cc3)no2)cc1` ?
## Result inactive

## Task What was the test verdict on C[C@H]1CCC/C=C/[C@@H]2C[C@H](O)C[C@H]2[C@H](O)[C@H](S(=O)c2ccc(O)cc2)CC(=O)O1 (some centres not stated) ?
## Result active

## Task What was the test verdict on `CN1CCN(C(=O)c2ccc(NC(=O)Nc3ccc(N(C)c4ccnc(Nc5ccc(CS(C)(=O)=O)cc5)n4)cc3)cc2)CC1` ?
## Result inactive

## Task What was the test verdict on `CS(=O)(=O)c1ccc(N/N=C/c2c(-c3ccc(S(C)(=O)=O)cc3)[nH]c3ccc(F)cc23)cc1` ?
## Result inactive

## Task What was the test verdict on `COc1cc2[nH]c(C(=O)c3cc(OC)c(OC)c(OC)c3)c(N)c2cc1C#CCO` ?
## Result active

## Task What was the test verdict on `COc1cc2c(c(OC)c1OC)-c1ccc(OC)c(=O)cc1[C@@H](NC(=O)CCl)CC2` ?
## Result active

## Task What was the test verdict on `O=C1C(=O)c2cc([N+](=O)[O-])ccc2-c2ccccc21` ?
## Result inactive

## Task What was the test verdict on `CS(=O)(=O)CCNCc1ccc(-c2ccc3ncnc(Nc4ccc(OCc5ccccc5)c(C(F)(F)F)c4)c3c2)o1` ?
## Result inactive

## Task What was the test verdict on NC1=NC(=O)N2CC12 (configuration not stated) ?
## Result inactive

## Task What was the test verdict on `C/C(=C\c1ccn(-c2ccc(N)c(C(F)(F)F)c2)n1)[C@@H]1C[C@@H]2O[C@]2(C)CCC[C@H](C)[C@H](O)[C@@H](C)C(=O)C(C)(C)[C@@H](O)CC(=O)O1` ?
## Result active

## Task What was the test verdict on `CCN(Cc1ccc(F)cc1)c1ccc(CO)c(Cl)c1` ?
## Result active

## Task What was the test verdict on `O=c1oc2ccc(Cl)cc2c(=O)n1-c1ccc(Cl)cc1F` ?
## Result inactive

----------
test system: NCI-H522 lung; test: NCI tumour cell line growth inhibition, 48 h
assayEndpoint: TGI (µM)
// units = µM; emit number, no label

## Task Look at this compound and give its reported TGI. `O=C(O)CN1CCNCCN(CC(=O)O)CC1`
## Result 30.7

## Task Look at this compound and give its reported TGI. CCN1C(=O)N(CC)C2C1NN=c1s/c(=C3\C(=O)N(CCC(C)C)c4ccccc43)c(=O)n12 (stereo not given)
## Result 4.18

## Task Look at this compound and give its reported TGI. COc1ccc(C2Oc3c(cccc3OC)C=C2[N+](=O)[O-])cc1OC (stereo not given)
## Result 12.8

## Task Look at this compound and give its reported TGI. `COc1cccc(-c2nn(-c3ccccc3)cc2-c2ccnc(NCCNS(=O)(=O)c3ccc(C(F)(F)F)cc3)c2)c1`
## Result 12.5

## Task Look at this compound and give its reported TGI. `CC(=O)[CH-]C(=O)c1ccccc1.CC(=O)[CH-]C(=O)c1ccccc1.O=C([O-])C[O-].O=C([O-])C[O-].[Ti+4]`
## Result 70.5

## Task Look at this compound and give its reported TGI. `O=C1CCC(=O)N1CNc1ccc2c(c1)Sc1ccccc1O2`
## Result 53.6

## Task Look at this compound and give its reported TGI. CCC1(O)CC(OC2CC(N(C)C)C(OC3CC(O)C(OC4OC(C)C(=O)C=C4N)C(C)O3)C(C)O2)c2c(O)c3c(c(O)c2C1C(=O)OC)C(=O)c1cccc(O)c1C3=O (stereo not given)
## Result 0.203

## Task Look at this compound and give its reported TGI. CC1CC(N)=Nc2ccccc2N1Cc1ccccc1 (stereo not given)
## Result 25.3

## Task Look at this compound and give its reported TGI. `Cc1[nH]c2c(C)ccc(C)c2c1CC(=O)O`
## Result 62.1

## Task Look at this compound and give its reported TGI. `C#C[C@@]1(O)[C@@H](CO)O[C@@H](n2cc(Cl)c3c(N)ncnc32)[C@@H]1O`
## Result 0.455

## Task Look at this compound and give its reported TGI. `O=C1C(=O)c2cc([N+](=O)[O-])ccc2-c2ccccc21`
## Result 2.68

## Task Look at this compound and give its reported TGI. COc1cc(CC2CCc3nc(N)nc(N)c3C2)cc(OC)c1OC (stereo not given)
## Result 17
